As shown below, each of these compounds has a reported EC50 value.
target: Metabotropic glutamate receptor 4 (Homo sapiens); assay: PubChem AID 2197; details: CHO hmGluR4/Gqi5 calcium mobilization, PAM potency

Consider the reported EC50 for these compounds:
COc1cc(NC(=O)c2ccccn2)ccc1F: 776 nM
O=C(Nc1ccc(Cl)c(Cl)c1)c1ccncn1: 2840 nM
O=C(Nc1ccc(Cl)c(Cl)c1)c1ccccn1: 1370 nM
O=C(Nc1ccc(F)c(C(F)(F)F)c1)c1ccccn1: 1530 nM
COc1ccc(NC(=O)c2ccccn2)cc1Cl: 1050 nM

# EC50 (compound: `O=C(Nc1cccc(Cl)c1)c1ccccn1` ) is 1090 nM

Item: `COc1cc(NC(=O)c2ccccn2)ccc1C` | EC50: 562 nM

Briefly, EC50 measured for `O=C(Nc1ccc(Cl)c(C(F)(F)F)c1)c1ccccn1` : 2050 nM
